Give pKi for every item shown.
Target: human progelatinase A (GelA) (Homo sapiens)
Sequence (P08253 110-446 limits assumed): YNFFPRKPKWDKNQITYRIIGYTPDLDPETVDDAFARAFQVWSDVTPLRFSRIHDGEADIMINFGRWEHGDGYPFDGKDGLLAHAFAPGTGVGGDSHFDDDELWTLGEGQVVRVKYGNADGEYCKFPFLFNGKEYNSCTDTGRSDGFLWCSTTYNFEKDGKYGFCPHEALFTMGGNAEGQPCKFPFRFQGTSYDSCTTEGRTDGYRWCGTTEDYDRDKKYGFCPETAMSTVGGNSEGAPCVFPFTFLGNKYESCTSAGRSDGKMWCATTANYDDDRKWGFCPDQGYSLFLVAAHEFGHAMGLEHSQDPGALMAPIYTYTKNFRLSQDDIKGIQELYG
Experiment: In vitro MMP inhibition assay (hydrolysis of fluorogenic MCA peptide substrate), gelatinase A
Format: biochemical
Conditions: Table 1; Ki,app; MCA peptide substrate 10 μM, 37° C., pH 7.5, 2% DMSO; read-out: Gel A
The meaning of pKi here: minus log10 of the concentration in molar units.

Request: # get_value(readout='pKi', item= CC(C)(O)[C@@H](NS(=O)(=O)c1ccc(Oc2ccc(Br)cc2)cc1)C(=O)O )
Response: 6.05

Request: # get_value(readout='pKi', item= CC(C)(SCc1ccccc1)[C@@H](NS(=O)(=O)c1ccc(Oc2ccncc2)cc1)C(=O)O )
Response: 6.71

Request: # get_value(readout='pKi', item= CC(C)(SCc1ccccc1)[C@@H](NS(=O)(=O)c1ccc(Oc2ccccc2)cc1)C(=O)NO )
Response: 10.42

Request: # get_value(readout='pKi', item= CC(C)(SCC(=O)O)[C@@H](NS(=O)(=O)c1ccc(Oc2ccc(F)cc2)cc1)C(=O)O )
Response: 5.81

Request: # get_value(readout='pKi', item= Cc1ccc(Oc2ccc(S(=O)(=O)N[C@@H](C(=O)NO)C(C)(C)SCc3ccccn3)cc2)cc1 )
Response: 10.44

Request: # get_value(readout='pKi', item= CC(C)(C)[C@@H](NS(=O)(=O)c1ccc(Oc2ccccn2)cc1)C(=O)O )
Response: 4.96

Request: # get_value(readout='pKi', item= Cn1ccnc1CSC(C)(C)[C@@H](NS(=O)(=O)c1ccc(Oc2ccc(Br)cc2)cc1)C(=O)O )
Response: 7.47

Request: # get_value(readout='pKi', item= CC(C)(C)[C@H](NS(=O)(=O)c1ccc(Oc2ccccn2)cc1)C(=O)NO [Example 10c] )
Response: 8.29

Request: # get_value(readout='pKi', item= CC(C)(C)OC(=O)CSC(C)(C)[C@@H](NS(=O)(=O)c1ccc(Oc2ccc(F)cc2)cc1)C(=O)NO )
Response: 10.32

Request: # get_value(readout='pKi', item= CC(C)(SCc1ccccn1)[C@@H](NS(=O)(=O)c1ccc(Oc2ccc(-c3ccoc3)cc2)cc1)C(=O)O )
Response: 8.15
